target: T1, CD3 epsilon homodimer protein (UniProt P07766 23-126); experiment: SPR, antibody over immobilised CD3e homodimer;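 further: SPR at 25 °C with CD3 epsilon homodimer amine-coupled to a CM4 sensor chip and antibody flowed over as analyte in HBS-EP+ running buffer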
T1 construct: also called CD3 (CD3 epsilon)
T1 sequence (P07766 23-126): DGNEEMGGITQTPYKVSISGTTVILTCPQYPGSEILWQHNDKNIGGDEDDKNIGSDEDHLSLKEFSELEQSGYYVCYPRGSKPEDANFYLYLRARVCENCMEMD
// returns rule not met unless KD ratio to GLS3000 is strictly below 2, in which case rule met

# binder, assignedCategory
data = [
    ("CE115HA000/GLS3000 V51I (antibody, IgG1, name in Kabat numbering, V domains shown, one-arm IgG1) VH: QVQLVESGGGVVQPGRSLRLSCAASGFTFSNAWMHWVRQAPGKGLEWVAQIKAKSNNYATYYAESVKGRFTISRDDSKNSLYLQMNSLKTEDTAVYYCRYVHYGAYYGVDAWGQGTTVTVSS VL: DIVMTQSPLSLPVTPGEPASISCRSSQSLVHSNRNTYLHWYQQKPGQAPRLLIYKISNRFSGVPDRFSGSGSGTDFTLKISRVEAEDVGVYYCGQGTQVPYTFGQGTKLEIK", "rule met"),
    ("CE115HA000/GLS3000 R54G (antibody, IgG1, name in Kabat numbering, V domains shown, one-arm IgG1) VH: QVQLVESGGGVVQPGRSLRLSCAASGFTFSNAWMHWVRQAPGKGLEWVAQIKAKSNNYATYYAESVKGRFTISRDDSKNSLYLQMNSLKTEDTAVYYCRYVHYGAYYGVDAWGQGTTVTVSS VL: DIVMTQSPLSLPVTPGEPASISCRSSQSLVHSNRNTYLHWYQQKPGQAPRLLIYKVSNGFSGVPDRFSGSGSGTDFTLKISRVEAEDVGVYYCGQGTQVPYTFGQGTKLEIK", "rule met"),
    ("CE115HA000/GLS3000 K50E (antibody, IgG1, name in Kabat numbering, V domains shown, one-arm IgG1) VH: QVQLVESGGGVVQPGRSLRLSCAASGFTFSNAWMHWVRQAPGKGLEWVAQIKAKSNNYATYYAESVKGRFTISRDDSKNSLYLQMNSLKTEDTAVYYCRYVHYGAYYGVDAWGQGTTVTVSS VL: DIVMTQSPLSLPVTPGEPASISCRSSQSLVHSNRNTYLHWYQQKPGQAPRLLIYEVSNRFSGVPDRFSGSGSGTDFTLKISRVEAEDVGVYYCGQGTQVPYTFGQGTKLEIK", "rule not met"),
    ("CE115HA000/GLS3000 V94L (antibody, IgG1, name in Kabat numbering, V domains shown, one-arm IgG1) VH: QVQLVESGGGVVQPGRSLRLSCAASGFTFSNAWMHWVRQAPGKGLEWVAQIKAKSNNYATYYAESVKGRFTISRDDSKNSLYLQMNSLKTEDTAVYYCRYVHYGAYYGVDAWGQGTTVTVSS VL: DIVMTQSPLSLPVTPGEPASISCRSSQSLVHSNRNTYLHWYQQKPGQAPRLLIYKVSNRFSGVPDRFSGSGSGTDFTLKISRVEAEDVGVYYCGQGTQLPYTFGQGTKLEIK", "rule not met"),
]
